Origin of the recorded values: patent US20120093811A1

Recorded koff values for a group of binders are listed next.
- EXPERIMENTAL_TARGET: T1, VEGF-D (recombinant human; source not given) (human, UniProt O43915 89-205, limits assumed)
- T1 construct: also used here as target of IC50 values averaged over Source 1 and Source 2; also called vascular endothelial growth factor-D
- T1 sequence: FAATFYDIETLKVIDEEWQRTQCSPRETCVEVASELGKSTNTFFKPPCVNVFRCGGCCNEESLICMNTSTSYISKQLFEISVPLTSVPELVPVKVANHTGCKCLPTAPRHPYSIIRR
- ASSAY_OVERVIEW: SPR (BIAcore) off-rate ranking of scFv clones
The reply should be a number in s⁻¹, with the unit left off.

Solved cases (3 shown):
scFv clone AW61 (scFv) scFv: QVQLVQSGAEVKQPGASVKVSCKASGYTFTGYNMYWVRQAPGQGLEWMGYIDPYNGDTTYNQKFKGRATMTTDTSTSTAYMKLRSLRSDDTAVYYCARTSYYGGMDYWGRGTLVTVASGGGASGGGGSGGGGSDIVMTQTPLSSPVTLGQPASISCRSSQSLVHSNGNTYLHWLQQRPGQPPRLLIYKVSNRFSGVPDRFSGSGAGTDFTLKISRVEAEDVGVYYCSQSTHVPRTFGQGTKLEIKR; 0.00222
scFv clone CZ24 (scFv) scFv: QVQLVQSGAKVKQPGANVKASCKASGYTFTGYNMYWVRQAPGQGLEWMGYIDPYNGDTTYNQKFKGRVTMTTDTSTSTAYMELRSLRSDDTAVYYCARTSYYGGMDYWGRGTLVTVASGGGASGGGGSGGGGSDIVMTQTPLSSPVTLGQPASISCRSSQSLVHSNGNTYLHWLQQRPGQPPRLLIYKVSNRFSGVPDRFSGSGAGTDFTLKISRVEAEDVGVYYCSQSTHVPRTFGQGTKLEIKR; 0.00759
scFv clone G75 (scFv) scFv: QVQLVQSGAEVKQPGASVKVSCKASGYTFTGYNMYWVRQVPGQGLEWMGYIDPYNGDTTYNQKFKGRVTMTTDTSTSTAYMELRSLRSDDTAVYYCARTSYYGGMDYWGRGALVTVASGGGASGGGGSGGGGSDIVMTQTPLSSPVTLGQPASISCRSSQSLVHSNGNTYLHWLQQRPGQPPRLLIYKVSNRFSGVPDRFSGSGAGTDFTLKISRVEAEDVGVYYCSQSTHVPRTFGQGTKLEIKR; 0.0072

Any idea what koff was measured for scFv clone DC64 (scFv) scFv: QVQLVQSGAKVKQPGASMKASCKASGYTFTGYNMYWVRQAPGQGLEWMGYIDPYNGDTTYNQKFKGRVTMTTDTSTSTAYMELRSLRSDDTAVYYCARTSYYGGMDYWGRGTLVTVASGGGASGGGGSGGGGSDIVMTQTPLSSPVTLGQPASISCRSSQSLVHSNGNTYLHWLQQRPGQPPRLLIYKVSNRFSGVPDRFSGSGAGTDFTLKISRVEAEDVGVYYCSQSTHVPRTFGQGTKLEIKR ?
0.00738

scFv clone Q30 (scFv) scFv: QVQLVQSGAEVKQPGASVKVSCKASGYTFTGYNMYWVRQAPGQGLEWMGYIDPYNGDTTYNQKFKGRVTMTTDTSTSTAYMELRSLRSDDTAVYYCARTSYYGGMDYWGRGALVTVASGGGASGGGGSGGGGSDIVMTQTPLSSPVTLGQPASISCRSSQSLVHSNGNTYLHWLQQRPGQPPRLLIYKVSNRFSGVPDRFSGSGAGTDFTLKISRVEAEDVGVYYCSQSTHVPRTFGQGTKLEIKR ?
0.0072

Can you handle scFv clone F61 (scFv) scFv: QVQLVQSGAEVKQPGASVKVSCKASGYTFTGYNMYWVRQAPGQGLEWMGYIDPYNGDTTYNQKFKGRVTMTTDTSTSTAYMKLRSLRSDDTAVYYCARTSYYGGMDYWGRGTLVTVASGGGASGGGGSGGGGSDIVMTQTPLSSPVTLGQPASISCRSSQSLVHSNGNTYLHWLQQRPGQPPRLLIYKVSNRFSGVPDRFSGSGAGTDFTLKISRVEAEDVGVYYCSQSTHVPRTFGQGTKLEIKR next?
0.00335

Another: scFv clone HH69 (scFv) scFv: QVQLVQSGAKVKQPGASVKASCKASGYTFTGYNMYWVRQAPGQGLEWMGYIDPYSGDTTYNQKFKGRVTMTTDTSTSTAYMELRSLRSDDTAVYYCARTSYYGGMDYWGRGTLVTVASGGGASGGGGSGGGGSDIVMTQTPLSGPVTLGQPASISCRSSQSLVHSNGNTYLHWLQQRPGQPPRLLIYKVSNRFSGVPDRFSGSGAGTDFTLKISRVEAEDVGVYYCSQSTHVPRTFGRGTKLEIKR
0.00212

Try this binder too: scFv clone I84 (scFv) scFv: QVQLVQSGAEVKQPGASVKVSCKASGYTFTGYNMYWVRQVPGQGLEWMGYIDPYNGDTTYNQKFKGRVTMTTDTSTSTAYMELRSLRSDDTAVYYCARTSYYGGMDYWGRGTLVTVASGGGASGGGGSGGGGSDIVMTQTPLSSPVTLGQPASISCRSSQSLVHSNGNTYLHWLQQRPGQPPRLLIYKVSNRFSGVPDRFSGSGAGTDFTLKISRVEAEDVGVYYCSQSTHVPRTFGQGTKLEIKR
0.00738

Okay, and scFv clone DD25 (scFv) scFv: QVQLVQSGAKVKQPGASVKASCKASGYTFTGYNMYWVRQAPGQGLEWVGYIDPYNGDTTYNQKFKGRVTMTTDTSTSTAYMELRSLRSDDTAVYYCARTSYYGGMDYWGRGTLVTVASGGGASGGGGSGGGGSDIVMTQTPLSSPVTLGQPASISCRSSQSLVHSNGNTYLHWLQQRPGQPPRLLIYKVSNRFSGVPDRFSGSGAGTDFTLKISRVEAEDVGVYYCSQSTHVPRTFGQGTKLEIKR ?
0.00373

Continue with scFv clone CI67 (scFv) scFv: QVQLVQSGAEVKQPGASVKVSCKASGYTFTGYNMYWVRQAPGQGLEWMGYIDPYNGDTTYNQKFKGRATMTTDTSTSTAYMKLRSLRSDDTAVYYCARTSYYGGMDYWGRGTLVTVASGGGASGGGGSGGGGSDIVMTQTPLSSPVTLGQPASISCRSSQSLVHSNGNTYLHWLQQRPGQPPRLLIYKVSNRFSGVPDRFSGSGAGTDFTLKISRVEAEDVGVYYCSQSAHVPRTFGQGTKLEIKR
0.00379

And scFv clone V37 (scFv) scFv: QVQLVQSGAEVKQPGASVKVSCKASGYTFTGYNMYWVRQVPGQGLEWMGYIDPYNGDTTYNQKFKGRVTMTTDTSTSTAYMELRSLRSDDTAVYYCARTSYYGGMDYWGRGTLVTVASGGGASGGGGSGGGGSDIVMTQTPLSSPVTLGQPASISCRSSQSLVHSNGNTYLHWLQQRPGQPPRLLIYKVSNRFSGVPDRFSGSGAGTDFTLKISRVEAEDVGVYYCSQSTHVPRTFGQGTKLEIKR ?
0.00794
